Reference source: patent US10501445B2

Assay: in vitro
Format: cell-based
Conditions: human
Method: Black 96-well clear-bottom microtiter plates (Corning, Amsterdam, The Netherlands) were filled in duplicate using a customized robot system with serial 4-fold dilutions of compound in a final volume of 50 μl culture medium [RPMI medium without phenol red, 10% FBS, 0.04% gentamycin (50 mg/ml) and 0.5% DMSO]. […] Three days post-virus exposure, viral replication was quantified by measuring GFP expression in the cells by a MSM laser microscope (Tibotec, Beerse, Belgium). […]
measured-parameter: CC50 at 3 days (µM)

>>> df
                                   compound  measured_parameter  censoring_qualifier  measured_value
0  O=c1cnc2ccc(-c3ccncc3)cc2n1Cc1nc2cc(F)ccc2n1CCCCF      CC50 at 3 days                    =            86.8
1  CS(=O)(=O)CCCn1c(Cn2c(=O)cnc3cc(F)ccc32)cc2cc(Br)ccc21      CC50 at 3 days                    =            9.73
2  CC(C)CCn1c(Cn2c(=O)cnc3ccc(-c4ccncc4)cc32)nc2nc(Cl)ccc21      CC50 at 3 days                    =            14.7
3  O=C1CN(C2CC2)c2ccncc2N1Cc1nc2cc(Cl)ccc2n1CCCC(F)(F)F      CC50 at 3 days                    >             100
4  CC(C)CCn1c(Cn2c(=O)cnc3ccc(-c4ccc(F)cc4)cc32)nc2nc(Cl)ccc21      CC50 at 3 days                    =            51.5
5  CC(C)CCn1c(Cn2c(=O)cnc3ccc(-c4cncnc4)cc32)nc2nc(Cl)ccc21      CC50 at 3 days                    >             100
6  O=c1cnc2ccc(-c3ccc(C(F)(F)F)cc3)cc2n1Cc1nc2cc(F)ccc2n1CCCCF      CC50 at 3 days                    =            42.4
7  O=c1cnc2ccc(Br)cc2n1Cc1nc2cc(F)ccc2n1CCCCF [Compound P1]      CC50 at 3 days                    =              87
